// reported Kd per item
Target: T1, EsCas13d, nuclease-dead (Eubacterium siraeum, UniProt B0MS50, R295A;H300A;R849A;H854A)
T1 sequence: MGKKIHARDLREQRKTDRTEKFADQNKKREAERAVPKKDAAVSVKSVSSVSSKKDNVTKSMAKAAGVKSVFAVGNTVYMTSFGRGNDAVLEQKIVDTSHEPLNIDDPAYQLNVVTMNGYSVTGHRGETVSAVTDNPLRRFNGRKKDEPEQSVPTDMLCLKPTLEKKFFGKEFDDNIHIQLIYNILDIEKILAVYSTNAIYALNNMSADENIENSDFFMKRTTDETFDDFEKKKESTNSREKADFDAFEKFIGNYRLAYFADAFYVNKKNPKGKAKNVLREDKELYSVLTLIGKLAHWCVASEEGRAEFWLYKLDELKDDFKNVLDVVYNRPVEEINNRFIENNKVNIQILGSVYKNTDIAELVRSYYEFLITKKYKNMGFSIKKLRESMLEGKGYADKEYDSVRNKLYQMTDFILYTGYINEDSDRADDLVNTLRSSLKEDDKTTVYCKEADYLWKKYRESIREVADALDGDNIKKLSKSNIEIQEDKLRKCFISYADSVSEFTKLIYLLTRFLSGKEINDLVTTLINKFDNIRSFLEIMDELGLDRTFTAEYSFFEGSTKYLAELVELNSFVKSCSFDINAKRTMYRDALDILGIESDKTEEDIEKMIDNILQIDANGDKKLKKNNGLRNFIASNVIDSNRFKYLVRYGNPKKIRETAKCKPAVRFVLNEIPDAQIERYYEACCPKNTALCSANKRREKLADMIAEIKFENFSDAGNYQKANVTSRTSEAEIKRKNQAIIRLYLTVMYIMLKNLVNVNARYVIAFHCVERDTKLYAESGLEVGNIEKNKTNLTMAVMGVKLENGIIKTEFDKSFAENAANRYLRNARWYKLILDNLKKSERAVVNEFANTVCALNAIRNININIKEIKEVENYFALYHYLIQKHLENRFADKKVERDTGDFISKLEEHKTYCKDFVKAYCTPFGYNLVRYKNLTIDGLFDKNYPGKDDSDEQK
Assay: crRNA (strand 1, pre-loaded); Mg2+; 40 mM Tris-HCl pH 7.5, 150 mM NaCl, 6 mM MgCl2, 1 mM DTT, 0.1% Tween-20, 0.2 mg/ml BSA; 25 C; 10 min per concentration, then washed
Conditions: tags: His6-TwinStrep-SUMO cleaved; N-terminal SNAP kept (SNAP-Surface 488); label: 3' end held by stalled T7 RNA polymerase
Only the number, expressed in nM, is required.

Use the examples below as a reference point.
| binder | value.unit | Kd |
| --- | --- | --- |
| target 1 insC 3' of 19,insA 3' of 12 (mixed) RNA 1: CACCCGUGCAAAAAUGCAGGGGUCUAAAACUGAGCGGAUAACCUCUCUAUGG RNA 2: GGGAAUGGAUCCACAUCUACGAAUUCGUACCAUCAGAGAGGAUUAUCCGCUCACCGAGAUCGGAAGAGCACACGU | nM | 69 |
| target 2 MT 5'PFS CAC 3'PFS AUG (mixed) RNA 1: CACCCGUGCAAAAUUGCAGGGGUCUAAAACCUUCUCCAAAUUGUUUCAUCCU RNA 2: GGGAAUGGAUCCACAUCUACGAAUUCCACAGGAUGAAACAAUUUGGAGAAGAUGAGAUCGGAAGAGCACACGU | nM | 1.4 |
| target 1 MT 5'PFS GCG 3'PFS ACU (mixed) RNA 1: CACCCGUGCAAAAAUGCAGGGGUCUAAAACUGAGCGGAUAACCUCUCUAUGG RNA 2: GGGAAUGGAUCCACAUCUACGAAUUCGCGCCAUAGAGAGGUUAUCCGCUCAACUAGAUCGGAAGAGCACACGU | nM | 18.2 |

Alright, here's another binder for you.
// query What does the record list as Kd for target 1 A1G,C22A (mixed) RNA 1: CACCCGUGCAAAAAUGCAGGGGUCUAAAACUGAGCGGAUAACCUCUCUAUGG RNA 2: GGGAAUGGAUCCACAUCUACGAAUUCGUAACAUAGAGAGGUUAUCCGCUCGCCGAGAUCGGAAGAGCACACGU ?
// result 12
